Experiment: Human coffee intervention study: plasma concentrations after roasted coffee brew by UPLC-MS/MS
Assay type: in vivo
Conditions: human, plasma, oral, 200 mL, participant wbvs, 0 h; b = below LLOQ; read-out: plasma concentration, individual
parameter_measured: concentration at 0 h
The reply should read as a number followed by its unit.

Documented concentration at 0 h of CC1C(=O)C23CCC4C(C(=O)O)CC(OC5OC(C(=O)O)C(O)C(O)C5O)CC4(C)C2CCC1C3 (stereo not shown) [M3] : 0.9 nM

###

Experiment: Human coffee intervention study: plasma concentrations after roasted coffee brew by UPLC-MS/MS
Format: in vivo
Conditions: human, plasma, oral, 200 mL, participant wbvs, 1 h after coffee; read-out: plasma concentration, individual
What concentration at 1 h was measured for each of the following?
Respond numerically; units are µM and should not be typed.

Documented concentration at 1 h of CC1C(=O)C23CCC4C(C(=O)O)CC(OC5OC(C(=O)O)C(O)C(O)C5O)CC4(C)C2CCC1C3 (stereo not drawn) [M3] : 0.0017

Documented concentration at 1 h of C=C1[C@@H]2CC[C@@H]3[C@@](CCC4[C@H](C(=O)O)C[C@@H](O)C[C@]43C)(C2)[C@@H]1O (stereo partly drawn) [compound 1, atractyligenin] : 0.0361

Documented concentration at 1 h of C=C1C2CCC3C4(C)CC(O)CC(C(=O)OC5OC(C(=O)O)C(O)C(O)C5O)C4CCC3(C2)C1O [M1, atractyligenin-19-O-β-D-glucuronide] : 0.0238

###

What concentration at 1 h was measured for each of the following?
Experiment: Human coffee intervention study: plasma concentrations after roasted coffee brew by UPLC-MS/MS
Type: in vivo
Conditions: human, plasma, oral, 200 mL, participant ggot, 1 h after coffee; read-out: plasma concentration, individual
Respond numerically; units are nM and should not be typed.

Documented concentration at 1 h of C=C1[C@@H]2CC[C@@H]3[C@@](CCC4[C@H](C(=O)O)C[C@@H](O)C[C@]43C)(C2)[C@@H]1O (stereo partly drawn) : 49.2

Documented concentration at 1 h of C=C1C2CCC3C4(C)CC(O)CC(C(=O)OC5OC(C(=O)O)C(O)C(O)C5O)C4CCC3(C2)C1O [M1, atractyligenin-19-O-β-D-glucuronide] : 32.2

Documented concentration at 1 h of CC1C(=O)C23CCC4C(C(=O)OC5OC(C(=O)O)C(O)C(O)C5O)CC(O)CC4(C)C2CCC1C3 (stereo not drawn) : 0.7

###

Assay: Human coffee intervention study: plasma concentrations after roasted coffee brew by UPLC-MS/MS
Assay type: in vivo
Settings: human, plasma, oral, 200 mL, participant wbvs, 4 h after coffee; read-out: plasma concentration, individual
What concentration at 4 h was measured for each of the following?
Respond numerically; units are nM and should not be typed.

Documented concentration at 4 h of C=C1C2CCC3C4(C)CC(O)CC(C(=O)OC5OC(C(=O)O)C(O)C(O)C5O)C4CCC3(C2)C1O [M1, atractyligenin-19-O-β-D-glucuronide] : 17.8

Documented concentration at 4 h of C=C1[C@@H]2CC[C@@H]3[C@@](CCC4[C@H](C(=O)O)C[C@@H](O)C[C@]43C)(C2)[C@@H]1O (stereo partly drawn) [compound 1, atractyligenin] : 35.2

Documented concentration at 4 h of CC1C(=O)C23CCC4C(C(=O)O)CC(OC5OC(C(=O)O)C(O)C(O)C5O)CC4(C)C2CCC1C3 (stereo not drawn) [M3] : 1.9
